- Tested on: SB.mhdgc-1
- ASSAY_NAME: viability at highest tested concentration (MAXR) relative to DMSO; higher = less cytotoxic
- MEASUREMENT_CONDITIONS: SB.mhdgc-1 (hereditary c.1380delA CDH1 gastric cancer)
Decision: viability beneath 20% gives 1.0; viability meeting or exceeding 20% gives 0.0.

MOLECULE: CN[C@@H]1C[C@H]2O[C@@](C)([C@@H]1OC)n1c3ccccc3c3c4c(c5c6ccccc6n2c5c31)C(=O)N[C@H]4O [7-Hydroxystaurosporine] (top concentration 46.0829 µM)
CLASS_LABEL: 1.0

MOLECULE: CCOC(=O)c1cncn1[C@H](C)c1ccccc1 [Etomidate] (top concentration 46.0829 µM)
CLASS_LABEL: 0.0

MOLECULE: CC(C)(C)OC(=O)Nc1ccc(-c2cc(C(=O)NCCCCCCC(=O)NO)no2)cc1 [ISOX] (top concentration 46.0829 µM)
CLASS_LABEL: 0.0

MOLECULE: Nc1nc(Cl)nc2c1ncn2[C@@H]1O[C@H](CO)[C@@H](O)[C@@H]1F [Clofarabine] (top concentration 46.0829 µM)
CLASS_LABEL: 0.0

MOLECULE: N#CC(c1ccnc(NCCc2cccnc2)n1)c1nc2ccccc2s1 (stereo unspecified) [JNK Inhibitor V] (top concentration 46.0829 µM)
CLASS_LABEL: 0.0

MOLECULE: COc1cc2c(Oc3ccc4[nH]c(C)cc4c3F)ncnc2cc1OCCCN1CCCC1 [Cediranib] (top concentration 46.0829 µM)
CLASS_LABEL: 1.0

Numbers sourced from the supplement of paper PMC5412046.
